Target: Sodium/glucose cotransporter 2 (Homo sapiens, UniProt P31639)
Sequence (P31639 whole entry): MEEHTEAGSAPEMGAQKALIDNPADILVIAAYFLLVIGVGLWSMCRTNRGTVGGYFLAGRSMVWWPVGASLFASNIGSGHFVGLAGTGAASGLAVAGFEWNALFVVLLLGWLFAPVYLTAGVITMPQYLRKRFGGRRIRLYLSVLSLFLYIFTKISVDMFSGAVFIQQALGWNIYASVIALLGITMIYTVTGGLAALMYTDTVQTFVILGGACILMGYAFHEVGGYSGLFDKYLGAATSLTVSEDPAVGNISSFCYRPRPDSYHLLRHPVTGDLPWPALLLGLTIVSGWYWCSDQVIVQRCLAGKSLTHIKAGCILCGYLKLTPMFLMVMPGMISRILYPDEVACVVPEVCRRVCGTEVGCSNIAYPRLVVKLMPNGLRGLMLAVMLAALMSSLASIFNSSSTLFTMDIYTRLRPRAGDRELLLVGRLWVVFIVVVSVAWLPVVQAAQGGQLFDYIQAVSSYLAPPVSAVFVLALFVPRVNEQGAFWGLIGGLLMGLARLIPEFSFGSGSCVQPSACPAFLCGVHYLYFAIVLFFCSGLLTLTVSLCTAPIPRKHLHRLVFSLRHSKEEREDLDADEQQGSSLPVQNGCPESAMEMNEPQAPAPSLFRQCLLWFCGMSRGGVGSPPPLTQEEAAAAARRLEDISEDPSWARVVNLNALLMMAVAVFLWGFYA
Assay: Inhibition of human recombinant SGLT2 expressed in CHO cells by liquid scintillation counting
pIC50: −log10 of the molar value.
reportedMetric: pIC50

compound: CC(C)(C)c1nnc(Cc2cccc(C3O[C@H](CO)[C@@H](O)[C@H](O)[C@H]3O)c2)s1 (stereo not given in full)
targetDesc: Sodium/glucose cotransporter 2 (Homo sapiens, UniProt P31639)
reportedMetric: pIC50
measurementQualifier: <
measuredResult: 5.00

compound: CCCc1nnc(Cc2cccc([C@@H]3O[C@H](CO)[C@@H](O)[C@H](O)[C@H]3O)c2)s1
targetDesc: Sodium/glucose cotransporter 2 (Homo sapiens, UniProt P31639)
reportedMetric: pIC50
measurementQualifier: =
measuredResult: 5.16

compound: OC[C@H]1OC(c2ccc(Cl)c(Cc3nnc(Cc4ccc(Cl)cc4)s3)c2)[C@H](O)[C@@H](O)[C@@H]1O (stereo not given in full)
targetDesc: Sodium/glucose cotransporter 2 (Homo sapiens, UniProt P31639)
reportedMetric: pIC50
measurementQualifier: =
measuredResult: 5.62

compound: Cn1nc(-c2nnc(Cc3cc([C@@H]4O[C@H](CO)[C@@H](O)[C@H](O)[C@H]4O)ccc3Cl)s2)c2ccccc21
targetDesc: Sodium/glucose cotransporter 2 (Homo sapiens, UniProt P31639)
reportedMetric: pIC50
measurementQualifier: =
measuredResult: 5.48

compound: OC[C@H]1O[C@@H](c2ccc(Cl)c(Cc3nnc(-c4csc(-c5ccncc5)n4)s3)c2)[C@H](O)[C@@H](O)[C@@H]1O
targetDesc: Sodium/glucose cotransporter 2 (Homo sapiens, UniProt P31639)
reportedMetric: pIC50
measurementQualifier: =
measuredResult: 7.14

meta.source: ChEMBL document CHEMBL1157636
